- Tested on: HCT-116
- assay_protocol: MTT anti-proliferative assay, HCT-116
- Format: cell-based, human
- applied_conditions: Homo sapiens, HCT-116, MTT; mean ± SD of three experiments; read-out: IC50 HCT-116
property: IC50 (µM)
The figure you give is taken to be in µM; do not add the unit.

Consider the following illustrative entries.
INSERT INTO measurements (compound, property, unit_symbol, meas_value) VALUES
  ('COc1ccc2nc(Cl)c(-c3cc(-c4ccc(Cl)cc4)nc(=S)[nH]3)cc2c1', 'IC50', 'µM', 2.24),
  ('COc1ccc2nc(Cl)c(C3CC(c4cc(OC)c(OC)c(OC)c4)=NO3)cc2c1 (stereo not drawn)', 'IC50', 'µM', 12.9);

Okay, now this compound:
Data request, read-out IC50, for COc1ccc2nc(Cl)c(C3CC(c4cc(OC)c(OC)c(OC)c4)=NN3c3ccccc3)cc2c1 (stereo not drawn) 3.04

###

- Tested on: HCT-116
- assay_protocol: MTT anti-proliferative assay, HCT-116
- Format: cell-based, human
- applied_conditions: Homo sapiens, HCT-116, MTT; mean ± SD of three experiments; read-out: IC50 HCT-116
Measured pIC50 of individual entries
Schema: pIC50 number; meaning minus log10 of the concentration expressed in molar units.

Consider the following illustrative entries.
INSERT INTO results (compound, experimental_target, property, meas_value) VALUES
  ('COc1ccc2nc(Cl)c(C3CC(c4cc(OC)c(OC)c(OC)c4)=NN3C(N)=O)cc2c1 (centres unmarked) [Compound 19]', 'HCT-116', 'pIC50', 5.13),
  ('COc1ccc2nc(Cl)c(C3CC(c4cc(OC)c(OC)c(OC)c4)=NN3)cc2c1 (centres unmarked) [Compound 10]', 'HCT-116', 'pIC50', 4.81),
  ('COc1ccc2nc(Cl)c(-c3cc(-c4cc(OC)c(OC)c(OC)c4)nc(=O)[nH]3)cc2c1 [Compound 34]', 'HCT-116', 'pIC50', 4.92),
  ('COc1ccc2nc(Cl)c(-c3cc(-c4ccc(N)cc4)nc(=O)[nH]3)cc2c1 [Compound 33]', 'HCT-116', 'pIC50', 5.07),
  ('COc1ccc2nc(Cl)c(C3CC(c4ccc(N)cc4)=NN3C(N)=O)cc2c1 (centres unmarked) [Compound 18]', 'HCT-116', 'pIC50', 4.98);

Data request, read-out pIC50, for COc1ccc2nc(Cl)c(C3CC(c4ccc(N)cc4)=NN3c3ccccc3)cc2c1 (centres unmarked) [Compound 21] 5.05

Data request, read-out pIC50, for COc1ccc2nc(Cl)c(-c3cc(-c4ccc(N)cc4)nc(=S)[nH]3)cc2c1 [Compound 27] 4.65

Data request, read-out pIC50, for COc1ccc2nc(Cl)c(/C=C/C(=O)c3ccc(Cl)cc3)cc2c1 [Compound 5] 4.54

###

- Tested on: HCT-116
- assay_protocol: MTT anti-proliferative assay, HCT-116
- Type: cell-based, human
- applied_conditions: Homo sapiens, HCT-116, MTT; mean ± SD of three experiments; read-out: IC50 HCT-116
pIC50: −log10 of the molar value.
The label depends only on pIC50: Yes if it is at least 5, No if it is smaller.

INSERT INTO results (compound, experimental_target, class) VALUES
  ('COc1ccc2nc(Cl)c(C3CC(c4ccc(N)cc4)=NN3)cc2c1 (centres unmarked) [Compound 9]', 'HCT-116', 'No'),
  ('COc1ccc2nc(Cl)c(C3CC(c4ccc(Cl)cc4)=NO3)cc2c1 (centres unmarked) [Compound 11]', 'HCT-116', 'No'),
  ('COc1ccc2nc(Cl)c(-c3cc(-c4cc(OC)c(OC)c(OC)c4)nc(=S)[nH]3)cc2c1 [Compound 28]', 'HCT-116', 'Yes'),
  ('COc1ccc2nc(Cl)c(-c3cc(-c4ccc(N)cc4)nc(N)n3)cc2c1 [Compound 30]', 'HCT-116', 'No'),
  ('COc1ccc2nc(Cl)c(/C=C/C(=O)c3ccc(N)cc3)cc2c1 [Compound 6]', 'HCT-116', 'No'),
  ('COc1ccc2nc(Cl)c(C3CC(c4ccc(N)cc4)=NO3)cc2c1 (centres unmarked) [Compound 12]', 'HCT-116', 'No'),
  ('COc1ccc2nc(Cl)c(/C=C/C(=O)c3cc(OC)c(OC)c(OC)c3)cc2c1 [Compound 7]', 'HCT-116', 'No'),
  ('COc1ccc2nc(Cl)c(C3CC(c4cc(OC)c(OC)c(OC)c4)=NN3c3ccc([N+](=O)[O-])cc3[N+](=O)[O-])cc2c1 (centres unmarked) [Compound 25]', 'HCT-116', 'Yes');

Hi, just wondering whether COc1ccc2nc(Cl)c(C3CC(c4ccc(Cl)cc4)=NN3c3ccccc3)cc2c1 (centres unmarked) [Compound 20] shows pIC50 of 5 or higher. Yes

Hi, just wondering whether COc1ccc2nc(Cl)c(C3CC(c4ccc(Cl)cc4)=NN3)cc2c1 (centres unmarked) [Compound 8] shows pIC50 of 5 or higher. No

Hi, just wondering whether COc1ccc2nc(Cl)c(-c3cc(-c4ccc(Cl)cc4)nc(=O)[nH]3)cc2c1 [Compound 32] shows pIC50 of 5 or higher. Yes
